measurementDescription: Toxicity in Sprague-Dawley rat administered once daily for 1 week
Type: organism-based
conditionSet: in vivo
endpoint: MTD at 168 h

### Prompt Entry O=C(O)C1(Sc2ccnc3ccc(Br)cc23)CCC1 [SHR-4640] has what MTD at 168 h?
### Response 300 mg/kg

====

measurementDescription: Cmax in beagle dog at 5 mg/kg, po by LC-MS/MS analysis
Format: ADME, organism-based, Canis lupus familiaris
Parameters: dose 5 mg/kg, route oral
conditionSet: in vivo
endpoint: Cmax (ng/mL)
Numbers only here, please. The scale is ng/mL.

### Prompt Entry O=C(O)C1(Sc2ccnc3ccc(Br)cc23)CCC1 has what Cmax?
### Response 7700

====

measurementDescription: Clearance in cynomolgus monkey at 10 mg/kg, po by LC-MS/MS analysis
Assay type: ADME, organism-based, Macaca fascicularis
conditionSet: in vivo
endpoint: CL/F (mL/min/kg)
Numbers only here, please. The scale is mL/min/kg.

### Prompt Entry O=C(O)C1(Sc2ccnc3ccc(Br)cc23)CCC1 has what CL/F?
### Response 1.3

====

measurementDescription: Tmax in Sprague-Dawley rat at 3 mg/kg, po by LC-MS/MS analysis
Format: ADME, organism-based
conditionSet: in vivo
Tmax values by entry
Numbers only here, please. The scale is h.

Consider the worked cases shown below.
### Prompt Entry O=C(O)C1(Sc2ccnc3ccc(Br)cc23)CCC1 has what Tmax?
### Response 1.2

### Prompt Same lookup for O=C(O)C1(Sc2ccnc3ccccc23)CCC1 , please.
### Response 0.5

Turning now to a further record.
### Prompt Entry O=C(O)C1(Sc2ccnc3ccc(C(F)(F)F)cc23)CCC1 has what Tmax?
### Response 1

====

fraction unbound values by entry
measurementDescription: Plasma protein binding in human
Assay type: ADME, cell-free
conditionSet: read-out: PPB (converted)
// no unit string in output, number only

### Prompt Entry O=C(O)C1(Sc2ccnc3ccc(Br)cc23)CCC1 [SHR-4640] has what fraction unbound?
### Response 0.013

### Prompt Same lookup for O=C(O)C1(Sc2ccnc3ccccc23)CCC1 , please.
### Response 0.002

Turning now to a further record.
### Prompt Entry O=C(O)C1(Sc2ccnc3ccc(C(F)(F)F)cc23)CCC1 has what fraction unbound?
### Response 0.001

====

measurementDescription: Bioavailability in beagle dog at 1 mg/kg, iv by LC-MS/MS analysis
Assay type: ADME, organism-based, Canis lupus familiaris
conditionSet: in vivo
endpoint: bioavailability (%)
Numbers only here, please. The scale is %.

### Prompt Entry O=C(O)C1(Sc2ccnc3ccc(Br)cc23)CCC1 has what bioavailability?
### Response 86.1

====

measurementDescription: Half life in rat liver microsomes
Assay type: ADME
endpoint: half-life (h)
Numbers only here, please. The scale is h.

Consider the worked cases shown below.
### Prompt Entry O=C(O)C1(Sc2ccnc3ccccc23)CCC1 has what half-life?
### Response 6.88

### Prompt Same lookup for O=C(O)C1(Sc2ccnc3ccc(Br)cc23)CCC1 [SHR-4640] , please.
### Response 3.28

---
### Prompt Entry O=C(O)C1(Sc2ccnc3ccc(C(F)(F)F)cc23)CCC1 has what half-life?
### Response 3.08

====

MRT values by entry
measurementDescription: Mean residence time in Sprague-Dawley rat at 3 mg/kg, po by LC-MS/MS analysis
Type: ADME, organism-based
conditionSet: in vivo
Put your answer as a value accompanied by its unit after it.

### Prompt Entry O=C(O)C1(Sc2ccnc3ccccc23)CCC1 has what MRT?
### Response 3.2 h

Turning now to a further record.
### Prompt Entry O=C(O)C1(Sc2ccnc3ccc(Br)cc23)CCC1 has what MRT?
### Response 6.8 h
